meta.source: ChEMBL document CHEMBL4411344

# assay.info: Nephrotoxicity in Balb/c mouse infected with Trypanosoma cruzi MHOM/Pe/2011/Arequipa DTU 5 trypomastigotes assessed as decrease in serum uric acid level at 20 mg/kg, po once daily for 5 consecutive days starting from day 10 post infection measured on day 127 post infection relative to control
# Type: toxicity, organism-based
# run.conditions: in vivo
attribute.measured: Activity

Qu. Tell me the measured Activity of `CCCCCCNc1c(N(C)CCCN(C)C)c(=O)c1=O` , please.
Ans. 10 to 20 mg/dL

###

# assay.info: Nephrotoxicity in Balb/c mouse infected with Trypanosoma cruzi MHOM/Pe/2011/Arequipa DTU 5 trypomastigotes assessed as decrease in serum urea level at 20 mg/kg, po once daily for 5 consecutive days starting from day 75 post infection measured on day 81 post infection relative to control
# Assay type: toxicity, organism-based
# run.conditions: in vivo
attribute.measured: Activity

Qu. Tell me the measured Activity of `CCCCCCNc1c(N(C)CCCN(C)C)c(=O)c1=O` , please.
Ans. 10 to 20 mg/dL

Qu. Tell me the measured Activity of `O=C(Cn1ccnc1[N+](=O)[O-])NCc1ccccc1` , please.
Ans. 20 to 30 mg/dL

Qu. Tell me the measured Activity of `CCCCCCCCCCCCCCCCNc1c(N(C)CCCN(C)C)c(=O)c1=O` , please.
Ans. 10 to 20 mg/dL

###

# assay.info: Selectivity index, ratio of IC50 for African green monkey Vero cells to IC50 for Trypanosoma cruzi IRHOD/CO/2008/SN3 DTU 1 trypomastigotes derived from infected Balb/c mouse
# Assay type: toxicity
# run.conditions: read-out: Ratio IC50
Exercise: for every item that follows, state its recorded selectivity ratio.
No unit in the answer, please; the number alone is enough.

Qu. Tell me the measured selectivity ratio of `CCCCCCCCCCCCOc1c(N(C)CCCN(C)C)c(=O)c1=O` , please.
Ans. 12.1

Qu. Tell me the measured selectivity ratio of `CN(C)CCCN(C)c1c(N)c(=O)c1=O` , please.
Ans. 35.4

Qu. Tell me the measured selectivity ratio of `CCCCCCNc1c(N(C)CCCN(C)C)c(=O)c1=O` , please.
Ans. 57

Qu. Tell me the measured selectivity ratio of `CCCCNc1c(N(C)CCCN(C)C)c(=O)c1=O` , please.
Ans. 58.6

Qu. Tell me the measured selectivity ratio of `CCCCCCCCCCCCCCCCNc1c(N(C)CCCN(C)C)c(=O)c1=O` , please.
Ans. 126

Qu. Tell me the measured selectivity ratio of `CCNc1c(N(C)CCCN(C)C)c(=O)c1=O` , please.
Ans. 32.1

Qu. Tell me the measured selectivity ratio of `CCCCCCCCCCCCCCCCOP(=O)([O-])OCC[N+](C)(C)C` , please.
Ans. 0.6

###

# assay.info: Nephrotoxicity in Balb/c mouse infected with Trypanosoma cruzi MHOM/Pe/2011/Arequipa DTU 5 trypomastigotes assessed as decrease in serum urea level at 20 mg/kg, po once daily for 5 consecutive days starting from day 10 post infection measured on day 16 post infection relative to control
# Type: toxicity, organism-based
# run.conditions: in vivo
attribute.measured: Activity

Qu. Tell me the measured Activity of `CCCCCCNc1c(N(C)CCCN(C)C)c(=O)c1=O` , please.
Ans. 10 to 20 mg/dL

Qu. Tell me the measured Activity of `O=C(Cn1ccnc1[N+](=O)[O-])NCc1ccccc1` , please.
Ans. 20 to 30 mg/dL

Qu. Tell me the measured Activity of `CCCCCCCCCCCCCCCCNc1c(N(C)CCCN(C)C)c(=O)c1=O` , please.
Ans. 10 to 20 mg/dL

###

Exercise: for every item that follows, state its recorded IC50.
# System: Trypanosoma cruzi
# assay.info: Trypanocidal activity against Trypanosoma cruzi MHOM/Pe/2011/Arequipa DTU 5 amastigotes infected in African green monkey Vero cells assessed as reduction in infected cells after 72 hrs by Giemsa-staining based assay
# Assay type: functional, organism-based
# run.conditions: MHOM/Pe/2011/Arequipa DTU 5, Vero
Dear colleague, please return just the value in µM, with no unit written.

Qu. Tell me the measured IC50 of `CCCCCCNc1c(N(C)CCCN(C)C)c(=O)c1=O` , please.
Ans. 60.5

Qu. Tell me the measured IC50 of `CCCCCCCCCCCCCCCCNc1c(N(C)CCCN(C)C)c(=O)c1=O` , please.
Ans. 5.6

###

# assay.info: Hepatotoxicity in Balb/c mouse infected with Trypanosoma cruzi MHOM/Pe/2011/Arequipa DTU 5 trypomastigotes assessed as increase in alkaline phosphatase level at 20 mg/kg, po once daily for 5 consecutive days starting from day 10 post infection measured on day 16 post infection relative to control
# Format: toxicity, organism-based
# run.conditions: in vivo
attribute.measured: Activity

Qu. Tell me the measured Activity of `CCCCCCNc1c(N(C)CCCN(C)C)c(=O)c1=O` , please.
Ans. 10 to 20 U/L

Qu. Tell me the measured Activity of `O=C(Cn1ccnc1[N+](=O)[O-])NCc1ccccc1` , please.
Ans. 20 to 30 U/L

###

# assay.info: Selectivity index, ratio of IC50 for African green monkey Vero cells to IC50 for Trypanosoma cruzi MHOM/Pe/2011/Arequipa DTU 5 trypomastigotes derived from infected Balb/c mouse
# Assay type: toxicity
# run.conditions: read-out: Ratio IC50
attribute.measured: selectivity ratio
No unit in the answer, please; the number alone is enough.

Qu. Tell me the measured selectivity ratio of `CN(C)CCCN(C)c1c(N)c(=O)c1=O` , please.
Ans. 32.2

Qu. Tell me the measured selectivity ratio of `CCCCCCCCCCCCCCCCOP(=O)([O-])OCC[N+](C)(C)C` , please.
Ans. 1.2

Qu. Tell me the measured selectivity ratio of `CCCCNc1c(N(C)CCCN(C)C)c(=O)c1=O` , please.
Ans. 42.2

Qu. Tell me the measured selectivity ratio of `CCCCCCCCCCCCCCCCNc1c(N(C)CCCN(C)C)c(=O)c1=O` , please.
Ans. 154

Qu. Tell me the measured selectivity ratio of `CCCCCCNc1c(N(C)CCCN(C)C)c(=O)c1=O` , please.
Ans. 139

Qu. Tell me the measured selectivity ratio of `CCNc1c(N(C)CCCN(C)C)c(=O)c1=O` , please.
Ans. 30.9

###

# assay.info: Hepatotoxicity in Balb/c mouse infected with Trypanosoma cruzi MHOM/Pe/2011/Arequipa DTU 5 trypomastigotes assessed as increase in ratio of serum ALT to GPT level at 20 mg/kg, po once daily for 5 consecutive days starting from day 75 post infection measured on day 81 post infection relative to control
# Type: toxicity, organism-based
# run.conditions: in vivo
Exercise: for every item that follows, state its recorded Activity.

Qu. Tell me the measured Activity of `CCCCCCCCCCCCCCCCNc1c(N(C)CCCN(C)C)c(=O)c1=O` , please.
Ans. 20 to 30 U/L

Qu. Tell me the measured Activity of O=C(Cn1ccnc1[N+](=O)[O-])NCc1ccccc1 [BENZNIDAZOLE] , please.
Ans. 20 to 30 U/L

Qu. Tell me the measured Activity of `CCCCCCNc1c(N(C)CCCN(C)C)c(=O)c1=O` , please.
Ans. 20 to 30 U/L

###

# Tested on: Vero
# assay.info: Cytotoxicity against African green monkey Vero cells assessed as reduction in cell viability after 72 hrs by resazurin dye based assay
# run.conditions: Chlorocebus sabaeus
Cut-off 400 µM on IC50: below means met, at or above means not met.

Qu. hey, is IC50 for `CCCCCCCCCCCCNc1c(N(C)CCCN(C)C)c(=O)c1=O` lower than 400 µM or not?
Ans. met

Qu. hey, is IC50 for `CN(C)CCCN(C)c1c(N)c(=O)c1=O` lower than 400 µM or not?
Ans. not met

Qu. hey, is IC50 for `CCCCCCCCCCCCCCCCOP(=O)([O-])OCC[N+](C)(C)C` lower than 400 µM or not?
Ans. met

Qu. hey, is IC50 for `CN(C)CCCN(C)c1c(N(C)CCCN(C)C)c(=O)c1=O` lower than 400 µM or not?
Ans. not met

Qu. hey, is IC50 for `CCCCCCCCCCCCCCCCNc1c(N(C)CCCN(C)C)c(=O)c1=O` lower than 400 µM or not?
Ans. not met

Qu. hey, is IC50 for `CCCCCCCCNc1c(N(C)CCCN(C)C)c(=O)c1=O` lower than 400 µM or not?
Ans. not met

Qu. hey, is IC50 for `CCNc1c(N(C)CCCN(C)C)c(=O)c1=O` lower than 400 µM or not?
Ans. not met

Qu. hey, is IC50 for `CCCCCCCCCCCC[N+](C)(C)CCCN(C)c1c(OCC)c(=O)c1=O` lower than 400 µM or not?
Ans. met

Qu. hey, is IC50 for `CCCCCCCCCCCC[N+](C)(C)CCCN(C)c1c(O)c(=O)c1=O` lower than 400 µM or not?
Ans. met

Qu. hey, is IC50 for `CN(C)CCCN(C)c1c(NCCCN(C)CCCNc2c(N(C)CCCN(C)C)c(=O)c2=O)c(=O)c1=O` lower than 400 µM or not?
Ans. not met

Qu. hey, is IC50 for `CCCCCCNc1c(N(C)CCCN(C)C)c(=O)c1=O` lower than 400 µM or not?
Ans. not met

Qu. hey, is IC50 for `CCCCCCCCCCCCOc1c(N(C)CCCN(C)C)c(=O)c1=O` lower than 400 µM or not?
Ans. met

Qu. hey, is IC50 for `CCCCNc1c(N(C)CCCN(C)C)c(=O)c1=O` lower than 400 µM or not?
Ans. not met
